Origin of measurements: patent US20210380703A1

test.system: T1, Goat anti-Human Kappa
T1 construct: Positive control of the ELISA; also called biotinylated goat anti-human kappa light chain
assay.procedure: ELISA, positive control; note: test concentration or dose not given here
measured.quantity: optical density
Hi, when you answer, please include the unit after the number. Thanks!

binder	reading
372_F06 (antibody, V domains shown) VH: EVQLLESGGGLVQPGGSLRLSCAASGFTFSDYGMNWVRQAPGKGLEWVAGINYNGGYKSYADSVKGRFTISRDNSKNTLYLQMNSLRAEDTAVYYCARSANWHDTALDYWGQGTLVTVSS VL: DIQMTQSPSSLSASVGDRVTITCRASQSILSYVNWYQQKPGKAPKLLIYAATSLASGVPSRFSGSGSGTDFTLTISSLQPEDFATYYCQQSYETPLTFGGGTKVEIK	3.48 OD
367_E09 (antibody, V domains shown) VH: EVQLLESGGGLVQPGGSLRLSCAASGFTFSDYGMNWVRQAPGKGLEWVASINYNSGYKGYADSVKGRFTISRDNSKNTLYLQMNSLRAEDTAVYYCARSANWHDTALDYWGQGTLVTVSS VL: DIQMTQSPSSLSASVGDRVTITCRASQSILSYLNWYQQKPGKAPKLVIYATTSRASGVPSRFSGSGSGTDFTLTISSLQPEDFATYYCQQSYETPLTFGGGTKVEIK	3.33 OD
373_E01 (antibody, V domains shown) VH: EVQLLESGGGLVQPGGSLRLSCAASGFTFSSYGMNWVRQAPGKGLEWVSGINYNGGYKGYADSVKGRFTISRDNSKNTLYLQMNSLRAEDTAVYYCARSANWHDTALDYWGQGTLVTVSS VL: DIQMTQSPSSLSASVGDRVTITCRASQSIVSYVNWYQQKPGKAPKLLIYAATSRHSGVPSRFSGSGSGTDFTLTISSLQPEDFATYYCQQSYNNPLTFGGGTKVEIK	2.99 OD
371_F04 (antibody, V domains shown) VH: EVQLLESGGGLVQPGGSLRLSCAASGFTFDSYSMNWVRQAPGKGLEWVAGINYNSGYKGYADSVKGRFTISRDNSKNTLYLQMNSLRAEDTAVYYCARSANWHDTALDYWGQGTLVTVSS VL: DIQMTQSPSSLSASVGDRVTITCRASQSILSYLNWYQQKPGKAPKLLIYAATSRHSGVPSRFSGSGSGTDFTLTISSLQPEDFATYYCQQSYNNPLTFGGGTKVEIK	3.66 OD
367_C05 (antibody, V domains shown) VH: EVQLLESGGGLVQPGGSLRLSCAASGFTFDDYGMNWVRQAPGKGLEWVSSINYNGGYTGYADSVKGRFTISRDNSKNTLYLQMNSLRAEDTAVYYCARSANWHDTHLDYWGQGTLVTVSS VL: DIQMTQSPSSLSASVGDRVTITCRASQSILSYVNWYQQKPGKAPKLVIYAATSRHSGVPSRFSGSGSGTDFTLTISSLQPEDFATYYCQQSYDLPLTFGGGTKVEIK	3.42 OD
370_A03 (antibody, V domains shown) VH: EVQLLESGGGLVQPGGSLRLSCAASGFTFSSYSMNWVRQAPGKGLEWVSNINYNGGYTSYADSVKGRFTISRDNSKNTLYLQMNSLRAEDTAVYYCARSANWHDTALDYWGQGTLVTVSS VL: DIQMTQSPSSLSASVGDRVTITCRASQSILSYLNWYQQKPGKAPKLLIYAATSRASGVPSRFSGSGSGTDFTLTISSLQPEDFATYYCQQSYDSPLTFGGGTKVEIK	3.56 OD
373_D05 (antibody, V domains shown) VH: EVQLLESGGGLVQPGGSLRLSCAASGFTFSSYSMNWVRQAPGKGLEWVSGINYNSGYKGYADSVKGRFTISRDNSKNTLYLQMNSLRAEDTAVYYCARSANWHDTALDYWGQGTLVTVSS VL: DIQMTQSPSSLSASVGDRVTITCRASQSILSYLNWYQQKPGKAPKLVIYAATSRASGVPSRFSGSGSGTDFTLTISSLQPEDFATYYCQQSYDSPLTFGGGTKVEIK	3.25 OD
368_E07 (antibody, V domains shown) VH: EVQLLESGGGLVQPGGSLRLSCAASGFTFSSYGMNWVRQAPGKGLEWVAGINYNGGYTSYADSVKGRFTISRDNSKNTLYLQMNSLRAEDTAVYYCAKSANWHDTALDYWGQGTLVTVSS VL: DIQMTQSPSSLSASVGDRVTITCRASQSILSYLNWYQQKPGKAPKLLIYAVTSRASGVPSRFSGSGSGTDFTLTISSLQPEDFATYYCQQSYENPLTFGGGTKVEIK	3.45 OD
367_H06 (antibody, V domains shown) VH: EVQLLESGGGLVQPGGSLRLSCAASGFTFSSYGMNWVRQAPGKGLEWVSNINYNGGYTGYADSVKGRFTISRDNSKNTLYLQMNSLRAEDTAVYYCARSANWHDTHLDYWGQGTLVTVSS VL: DIQMTQSPSSLSASVGDRVTITCRASQSIITYLNWYQQKPGKAPKLLIYAATSRASGVPSRFSGSGSGTDFTLTISSLQPEDFATYYCQQSYDTPLTFGGGTKVEIK	3.65 OD

Now examine the next entry.
Entry 368_D05 (antibody, V domains shown) VH: EVQLLESGGGLVQPGGSLRLSCAASGFTFSSYSMNWVRQAPGKGLEWVSGINYNGGYTSYADSVKGRFTISRDNSKNTLYLQMNSLRAEDTAVYYCARSANWHDTALDYWGQGTLVTVSS VL: DIQMTQSPSSLSASVGDRVTITCRASQSILTYLNWYQQKPGKAPKLVIYAATSRASGVPSRFSGSGSGTDFTLTISSLQPEDFATYYCQQSDDSPLTFGGGTKVEIK ; optical density = 3.38 OD
